Source of measurements: patent US6864286B2

- MEASUREMENT TARGET: EGFR tyrosine kinase (Homo sapiens, UniProt P00533)
- Construct: anti-EGFR immunoprecipitates from lysates of MDA-MB-231 human breast cancer cells; endogenous in cells
- Sequence (P00533 25-1210): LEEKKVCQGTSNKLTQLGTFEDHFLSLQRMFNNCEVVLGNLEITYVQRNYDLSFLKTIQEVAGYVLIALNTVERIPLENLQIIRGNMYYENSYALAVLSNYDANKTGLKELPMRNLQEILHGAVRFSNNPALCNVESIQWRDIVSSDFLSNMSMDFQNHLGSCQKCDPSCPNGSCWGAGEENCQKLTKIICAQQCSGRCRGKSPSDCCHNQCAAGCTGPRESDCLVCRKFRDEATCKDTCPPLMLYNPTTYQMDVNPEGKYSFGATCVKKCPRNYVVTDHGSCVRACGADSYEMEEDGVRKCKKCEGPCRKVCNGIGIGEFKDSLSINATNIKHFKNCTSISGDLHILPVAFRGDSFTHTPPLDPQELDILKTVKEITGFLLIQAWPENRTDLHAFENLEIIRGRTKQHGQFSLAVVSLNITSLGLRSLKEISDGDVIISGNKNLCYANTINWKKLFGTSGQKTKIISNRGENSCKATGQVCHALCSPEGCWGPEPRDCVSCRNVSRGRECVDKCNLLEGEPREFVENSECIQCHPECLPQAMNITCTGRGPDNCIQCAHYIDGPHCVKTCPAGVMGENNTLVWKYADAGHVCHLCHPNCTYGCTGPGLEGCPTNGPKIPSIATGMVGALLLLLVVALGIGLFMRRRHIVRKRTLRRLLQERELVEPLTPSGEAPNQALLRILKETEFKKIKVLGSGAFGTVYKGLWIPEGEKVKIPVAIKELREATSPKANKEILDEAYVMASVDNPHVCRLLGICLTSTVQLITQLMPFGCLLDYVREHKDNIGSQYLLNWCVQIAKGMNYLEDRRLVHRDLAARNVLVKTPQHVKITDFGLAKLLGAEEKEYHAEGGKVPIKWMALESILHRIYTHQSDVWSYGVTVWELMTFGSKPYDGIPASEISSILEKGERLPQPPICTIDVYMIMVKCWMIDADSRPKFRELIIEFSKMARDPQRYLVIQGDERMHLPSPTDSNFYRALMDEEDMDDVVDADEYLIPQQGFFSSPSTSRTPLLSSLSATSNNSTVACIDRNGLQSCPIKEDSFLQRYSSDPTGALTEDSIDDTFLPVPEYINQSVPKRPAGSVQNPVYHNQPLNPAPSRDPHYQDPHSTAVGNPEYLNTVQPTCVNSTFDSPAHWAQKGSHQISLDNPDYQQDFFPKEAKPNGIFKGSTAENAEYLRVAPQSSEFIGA
- ASSAY OVERVIEW: Cell-free EGFR immune complex kinase assay
- CONDITIONS: EGFR immunoprecipitated from MDA-MB-231 lysates, 1 hour incubation, read-out: EGFR Inhibition IC50
List of IC50 values.
PARAMETER MEASURED: IC50

{"MOLECULE": "CC(O)=C(C#N)C(=O)Nc1cccc(F)c1", "MEASUREMENT TARGET": "EGFR tyrosine kinase (Homo sapiens, UniProt P00533)", "RECORDED MEASUREMENT": "> 100 µM"}
{"MOLECULE": "CC(O)=C(C#N)C(=O)Nc1cccc(Cl)c1", "MEASUREMENT TARGET": "EGFR tyrosine kinase (Homo sapiens, UniProt P00533)", "RECORDED MEASUREMENT": "> 100 µM"}
{"MOLECULE": "CC(O)=C(C#N)C(=O)Nc1ccccc1F", "MEASUREMENT TARGET": "EGFR tyrosine kinase (Homo sapiens, UniProt P00533)", "RECORDED MEASUREMENT": "74.5 µM"}
{"MOLECULE": "CC(O)=C(C#N)C(=O)Nc1cc(Br)ccc1Br", "MEASUREMENT TARGET": "EGFR tyrosine kinase (Homo sapiens, UniProt P00533)", "RECORDED MEASUREMENT": "> 100 µM"}
{"MOLECULE": "CC(O)=C(C#N)C(=O)Nc1ccccc1Br", "MEASUREMENT TARGET": "EGFR tyrosine kinase (Homo sapiens, UniProt P00533)", "RECORDED MEASUREMENT": "> 100 µM"}
{"MOLECULE": "CC(O)=C(C#N)C(=O)Nc1ccc(C(F)(F)F)cc1 [LFM, reference compound]", "MEASUREMENT TARGET": "EGFR tyrosine kinase (Homo sapiens, UniProt P00533)", "RECORDED MEASUREMENT": "5.4 µM"}
{"MOLECULE": "CC(O)=C(C#N)C(=O)Nc1ccccc1", "MEASUREMENT TARGET": "EGFR tyrosine kinase (Homo sapiens, UniProt P00533)", "RECORDED MEASUREMENT": "> 100 µM"}
{"MOLECULE": "CC(O)=C(C#N)C(=O)Nc1ccc(Cl)cc1", "MEASUREMENT TARGET": "EGFR tyrosine kinase (Homo sapiens, UniProt P00533)", "RECORDED MEASUREMENT": "> 100 µM"}
{"MOLECULE": "C/C(O)=C(\\C#N)C(=O)Nc1ccc(OC(F)(F)F)cc1", "MEASUREMENT TARGET": "EGFR tyrosine kinase (Homo sapiens, UniProt P00533)", "RECORDED MEASUREMENT": "1.7 µM"}
{"MOLECULE": "CC(O)=C(C#N)C(=O)Nc1cccc(Br)c1", "MEASUREMENT TARGET": "EGFR tyrosine kinase (Homo sapiens, UniProt P00533)", "RECORDED MEASUREMENT": "> 100 µM"}
{"MOLECULE": "CC(O)=C(C#N)C(=O)Nc1ccccc1C(F)(F)F", "MEASUREMENT TARGET": "EGFR tyrosine kinase (Homo sapiens, UniProt P00533)", "RECORDED MEASUREMENT": "> 100 µM"}
{"MOLECULE": "CC(O)=C(C#N)C(=O)Nc1ccc(Br)cc1", "MEASUREMENT TARGET": "EGFR tyrosine kinase (Homo sapiens, UniProt P00533)", "RECORDED MEASUREMENT": "> 100 µM"}
{"MOLECULE": "CC(O)=C(C#N)C(=O)Nc1cccc(C(F)(F)F)c1", "MEASUREMENT TARGET": "EGFR tyrosine kinase (Homo sapiens, UniProt P00533)", "RECORDED MEASUREMENT": "> 100 µM"}
{"MOLECULE": "CC(O)=C(C#N)C(=O)Nc1ccccc1Cl", "MEASUREMENT TARGET": "EGFR tyrosine kinase (Homo sapiens, UniProt P00533)", "RECORDED MEASUREMENT": "> 100 µM"}
{"MOLECULE": "CC(O)=C(C#N)C(=O)Nc1ccc(F)cc1", "MEASUREMENT TARGET": "EGFR tyrosine kinase (Homo sapiens, UniProt P00533)", "RECORDED MEASUREMENT": "> 100 µM"}

====

- MEASUREMENT TARGET: BTK (Homo sapiens)
- Sequence (Q06187 whole entry, species assumed): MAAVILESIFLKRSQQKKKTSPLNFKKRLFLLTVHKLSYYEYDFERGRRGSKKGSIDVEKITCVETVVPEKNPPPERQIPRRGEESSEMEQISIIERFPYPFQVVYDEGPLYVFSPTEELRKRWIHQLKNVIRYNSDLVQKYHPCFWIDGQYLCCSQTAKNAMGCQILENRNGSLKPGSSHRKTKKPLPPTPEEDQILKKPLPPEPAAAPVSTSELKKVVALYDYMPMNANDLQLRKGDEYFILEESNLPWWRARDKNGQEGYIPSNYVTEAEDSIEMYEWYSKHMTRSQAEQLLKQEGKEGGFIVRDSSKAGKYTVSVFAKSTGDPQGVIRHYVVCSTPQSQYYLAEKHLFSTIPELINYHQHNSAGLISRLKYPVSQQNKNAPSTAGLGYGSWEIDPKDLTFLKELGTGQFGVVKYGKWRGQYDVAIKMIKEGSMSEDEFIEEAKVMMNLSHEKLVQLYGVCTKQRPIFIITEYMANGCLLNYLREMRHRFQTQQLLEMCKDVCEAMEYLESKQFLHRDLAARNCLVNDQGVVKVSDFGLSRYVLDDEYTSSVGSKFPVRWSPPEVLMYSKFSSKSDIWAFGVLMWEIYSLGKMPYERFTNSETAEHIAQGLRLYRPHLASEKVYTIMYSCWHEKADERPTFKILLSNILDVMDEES
- ASSAY OVERVIEW: Cell-free BTK immune complex kinase assay
- CONDITIONS: BTK, cell-free; read-out: Inhibition IC50
pIC50: −log10 of the molar value.

{"MOLECULE": "C/C(O)=C(\\C#N)C(=O)Nc1ccc(OC(F)(F)F)cc1 [LFM-A12]", "pIC50": "< 3.76"}

====

List of IC50 values.
- Tested on: MDA-MB-231 human breast cancer cells
- ASSAY OVERVIEW: Transfilter cell invasion assay (Matrigel-coated Boyden chambers)
- Type: cell-based
- CONDITIONS: MDA-MB-231, migration for 48 hours, mean of two experiments, read-out: IC50 for inhibition of invasion through Matrigel matrix

{"MOLECULE": "C/C(O)=C(\\C#N)C(=O)Nc1ccc(OC(F)(F)F)cc1 [LFM-A12]", "MEASUREMENT TARGET": "MDA-MB-231 human breast cancer cells", "UOM": "µM", "IC50": 28.4}
{"MOLECULE": "CC(O)=C(C#N)C(=O)Nc1ccc(C(F)(F)F)cc1 [LFM, reference compound]", "MEASUREMENT TARGET": "MDA-MB-231 human breast cancer cells", "UOM": "µM", "IC50": 97}

====

- MEASUREMENT TARGET: UniProt P52333
- Sequence (P52333 1-1124): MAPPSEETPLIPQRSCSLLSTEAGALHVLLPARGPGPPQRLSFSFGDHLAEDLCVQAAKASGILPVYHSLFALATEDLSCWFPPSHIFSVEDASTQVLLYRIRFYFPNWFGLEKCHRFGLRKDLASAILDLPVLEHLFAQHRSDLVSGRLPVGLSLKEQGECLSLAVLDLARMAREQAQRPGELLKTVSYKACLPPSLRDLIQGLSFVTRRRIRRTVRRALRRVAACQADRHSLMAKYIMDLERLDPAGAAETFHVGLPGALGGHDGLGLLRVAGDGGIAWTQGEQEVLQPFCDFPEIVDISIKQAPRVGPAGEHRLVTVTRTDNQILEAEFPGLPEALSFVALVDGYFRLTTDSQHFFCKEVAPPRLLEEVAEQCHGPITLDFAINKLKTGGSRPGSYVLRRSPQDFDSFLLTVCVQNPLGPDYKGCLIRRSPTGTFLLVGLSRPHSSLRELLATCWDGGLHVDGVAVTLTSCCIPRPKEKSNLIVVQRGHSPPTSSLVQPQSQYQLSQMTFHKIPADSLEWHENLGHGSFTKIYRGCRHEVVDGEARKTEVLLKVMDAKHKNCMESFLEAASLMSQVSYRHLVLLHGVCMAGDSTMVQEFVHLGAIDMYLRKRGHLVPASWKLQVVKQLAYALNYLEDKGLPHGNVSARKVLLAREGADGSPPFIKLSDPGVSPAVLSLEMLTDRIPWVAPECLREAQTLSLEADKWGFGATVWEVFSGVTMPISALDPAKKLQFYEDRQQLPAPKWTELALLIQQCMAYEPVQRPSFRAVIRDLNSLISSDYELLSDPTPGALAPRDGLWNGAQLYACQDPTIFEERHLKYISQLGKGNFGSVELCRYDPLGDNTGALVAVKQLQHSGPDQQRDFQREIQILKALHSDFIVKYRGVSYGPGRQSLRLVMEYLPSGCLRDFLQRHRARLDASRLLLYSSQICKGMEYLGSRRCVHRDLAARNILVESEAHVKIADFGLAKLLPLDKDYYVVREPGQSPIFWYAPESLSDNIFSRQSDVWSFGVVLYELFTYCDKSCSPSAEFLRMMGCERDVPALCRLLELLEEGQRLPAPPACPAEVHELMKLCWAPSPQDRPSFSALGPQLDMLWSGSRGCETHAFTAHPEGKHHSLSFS
- ASSAY OVERVIEW: Cell-free JAK3 immune complex kinase assay
- CONDITIONS: JAK3, cell-free; read-out: Inhibition IC50
PARAMETER MEASURED: IC50

{"ITEM SMILES": "C/C(O)=C(\\C#N)C(=O)Nc1ccc(OC(F)(F)F)cc1", "MEASUREMENT TARGET": "UniProt P52333", "RECORDED MEASUREMENT": "> 350 µM"}

====

- MEASUREMENT TARGET: JAK1 (Homo sapiens)
- Sequence (P23458 whole entry, species assumed): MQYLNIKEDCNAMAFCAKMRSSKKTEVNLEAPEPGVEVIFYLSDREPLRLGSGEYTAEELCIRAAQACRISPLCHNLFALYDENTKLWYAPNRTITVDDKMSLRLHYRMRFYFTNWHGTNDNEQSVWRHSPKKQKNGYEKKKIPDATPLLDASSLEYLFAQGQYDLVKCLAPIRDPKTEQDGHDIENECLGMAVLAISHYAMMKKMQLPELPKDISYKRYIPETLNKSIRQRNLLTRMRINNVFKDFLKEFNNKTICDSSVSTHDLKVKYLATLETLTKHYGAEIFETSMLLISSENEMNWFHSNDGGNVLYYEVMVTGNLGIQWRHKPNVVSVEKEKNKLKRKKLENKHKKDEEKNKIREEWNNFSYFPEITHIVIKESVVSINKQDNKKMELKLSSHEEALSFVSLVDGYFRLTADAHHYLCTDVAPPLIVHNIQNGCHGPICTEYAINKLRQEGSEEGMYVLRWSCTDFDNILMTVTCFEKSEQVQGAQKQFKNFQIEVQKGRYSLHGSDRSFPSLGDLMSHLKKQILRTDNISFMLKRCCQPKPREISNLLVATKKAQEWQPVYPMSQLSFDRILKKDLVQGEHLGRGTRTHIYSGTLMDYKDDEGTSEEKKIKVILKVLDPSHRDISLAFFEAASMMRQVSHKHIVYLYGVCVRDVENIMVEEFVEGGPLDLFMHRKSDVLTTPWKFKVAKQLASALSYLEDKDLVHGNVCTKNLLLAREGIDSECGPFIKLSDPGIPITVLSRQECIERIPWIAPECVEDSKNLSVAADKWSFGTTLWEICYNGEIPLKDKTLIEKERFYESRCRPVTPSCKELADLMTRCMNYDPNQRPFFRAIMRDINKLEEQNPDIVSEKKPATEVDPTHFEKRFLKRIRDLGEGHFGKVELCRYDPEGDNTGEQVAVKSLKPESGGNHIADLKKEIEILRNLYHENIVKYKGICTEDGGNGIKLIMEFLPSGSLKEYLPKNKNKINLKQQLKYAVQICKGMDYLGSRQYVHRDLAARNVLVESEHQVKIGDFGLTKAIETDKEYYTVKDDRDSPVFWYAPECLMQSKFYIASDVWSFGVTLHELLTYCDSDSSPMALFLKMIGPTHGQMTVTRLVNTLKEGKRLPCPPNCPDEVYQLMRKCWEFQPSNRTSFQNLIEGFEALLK
- ASSAY OVERVIEW: Cell-free JAK1 immune complex kinase assay
- CONDITIONS: JAK1, cell-free; read-out: Inhibition IC50
pIC50: −log10 of the molar value.
PARAMETER MEASURED: pIC50

{"ITEM SMILES": "C/C(O)=C(\\C#N)C(=O)Nc1ccc(OC(F)(F)F)cc1", "RECORDED MEASUREMENT": "< 3.76"}
